Every entry's value here was drawn from PubChem BioAssay (NCI).

This section presents compounds with their documented growth values.
# Test system: CAKI-1 renal
# TEST: NCI-60 one-dose screen, 48 h (100 = growth as untreated, 0 = no growth, -100 = all killed)
# ASSAY_SETUP: 10 µM unless noted
Compounds without any hit were thinned out: in the full panel of roughly 83,000, 20% have a hit.
Could you give me the number in %? Just the number is fine.

Examples with answers:
# CPD_SMILES, EXPERIMENTAL_SYSTEM, QUANTITY, QUANTITATIVE_READOUT
rows = [
    ("C(=C(\\C1=NCCN1)n1ccc2ccccc21)/c1ccccc1", "CAKI-1 renal", "growth", 80.7),
    ("CCCOC(=O)Nc1nc2ccc(SCC)cc2s1", "CAKI-1 renal", "growth", 79.8),
]

Now turn to the next compound.
Look up growth: CS(=O)(=O)Nc1cc(-c2ccc3ncnc(Nc4ccc5c(cnn5Cc5ccncc5)c4)c3c2)cnc1Cl
40.7
